B1: DLC1 (parent)
chain: HVTHWMGQPFNSDDRNTACHHGLV

Variants of: B1
Test: protein stability index of a GFP-peptide fusion (GPS, HEK-293T) (PSI 1-6); higher = more stable;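 further: lentivirally expressed fusions sorted by FACS into six bins by GFP to DsRed ratio, PSI derived from sequencing read proportions per bin multiplied by bin number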
Details: c terminus: a fixed tail appended
Decision: protein stability index >= 2 yields Criterion met, all other cases yield Criterion not met.

Recorded results for 4 variants are shown here.
- HVTHWMGQPFNSDDRYTACHHGLV [N16Y]: Criterion met
- HVTHWMGQPFISDDRNTACHHGLV [N11I]: Criterion not met
- HVTHWMGQPFNSDDRMTACHHGLV [N16M]: Criterion not met
- HVTHWMGQPFNSDDRNTACSHGLV [H20S]: Criterion met

Moving on to the next variant.
Query: Could you tell me if the measured protein stability index of EVTHWMGQPFNSDDRNTACHHGLV [H1E] reaches 2 or more?
Reply: Criterion met
